- Experiment Description: Cytotoxicity test of compound in MT-2 cells (XTT)
- Assay type: cell-based
- Condition Notes: human; MT-2 cell line, uninfected cells
Recorded CC50 at 4 days values for a group of compounds are listed next.
Measured Quantity: CC50 at 4 days

                              sample_smiles  measured_quantity  value_observed
0  Cc1cc(Br)cc(C)c1Oc1cc(Nc2ccc(C#N)cc2)c([N+](=O)[O-])cc1[N+](=O)[O-]     CC50 at 4 days     > 100 µg/mL
1  Cc1cc(C)c(Nc2cc(Nc3ccc(C#N)cc3)c([N+](=O)[O-])cc2[N+](=O)[O-])c(C)c1     CC50 at 4 days     > 100 µg/mL
2  Cc1cccc(C)c1Oc1cc(Nc2ccc(C#N)cc2)c([N+](=O)[O-])cc1[N+](=O)[O-]     CC50 at 4 days     > 100 µg/mL
3  Cc1cc(C)c(Oc2cc(Nc3ccc(C#N)cc3)c([N+](=O)[O-])cc2[N+](=O)[O-])c(C)c1     CC50 at 4 days      28.8 µg/mL
